Assay: viability loss with induced miR-34 in A549 – imaging, A549 dox-inducible miR-34, nuclei and caspase counts, primary screen (AID 1347080); note: test concentration not given here
Details: A549 miR-34 inducible, Hoechst nuclei count, 48 h; hits give low values; cell number ratio, induced over uninduced
Reported values of fold change for individual entries
experimental_endpoint: fold change

1) Cn1c([N+](=O)[O-])cc[n+]1C ... 0.892
2) CCC(CC)CC1(C(=O)Nc2ccccc2SC(=O)C(C)C)CCCCC1 ... 0.89
3) CCCCC/C=C\C/C=C\C/C=C\C/C=C\CCCC(=O)OCC(O)CO (centres undefined) ... 0.924
4) O=C(O)CCC/C=C/C[C@@H]1[C@@H](/C=C/[C@@H](O)COc2cccc(C(F)(F)F)c2)[C@H](O)C[C@@H]1O ... 0.985
5) CCCCC[C@H](O)/C=C/[C@H]1[C@H](O)CC(=O)[C@@H]1C/C=C\CCCC(=O)NCCO ... 1.16
6) Cc1ccc(CC2(O)CCN(CCOc3ccc(O)cc3)CC2)cc1 ... 0.939
7) Cc1cc(Nc2ncnc3ccc(-c4ccc(CNCCS(C)(=O)=O)o4)cc23)ccc1Oc1ccn2ncnc2c1 ... 0.962
8) CCCCC[C@H](O)/C=C/[C@@H]1[C@H]2C/C=C\CCCC(=O)O[C@@H]1C[C@@H]2O ... 0.912
9) Nc1ccc(C(=O)Nc2cccc(-c3nc(N4CCOCC4)c4oc5ncccc5c4n3)c2)cn1 ... 1.02
10) O=C(/C=C/c1cccc(C(=O)NO)c1)NO ... 0.962
11) CCCNC(=O)[C@H]1O[C@@H]1C(=O)N[C@H](C(=O)N1CCC[C@H]1C(=O)OC)C(C)CC (some centres undefined) ... 0.991
12) O=C(O)CCC/C=C\CC1C(=O)C[C@@H](O)[C@@H]1/C=C/[C@@H](O)COc1ccccc1 (some centres undefined) ... 0.868
13) CC(C)[C@H](NS(=O)(=O)c1ccc(-c2ccc(Br)cc2)cc1)C(=O)O ... 0.908
14) CC(C)[C@H]1c2ccc(F)cc2CC[C@@]1(CCN(C)CCCc1nc2ccccc2[nH]1)OC(=O)C1CC1 ... 0.792
15) Nc1ncnc2c1nc(Br)n2[C@@H]1O[C@@H]2COP(=O)(O)O[C@H]2[C@H]1O ... 0.96
16) O=C(O)c1ccc(-c2ccc3cc(C45CC6CC(CC(C6)C4)C5)c(O)cc3c2)cc1 ... 1.14
17) CNC(=O)c1cc(Oc2ccc(NC(=O)Nc3cc(C(C)(C)C)nn3-c3ccc4ncccc4c3)c(F)c2)ccn1 ... 0.963
18) CC1(C)CC(=O)c2c(C(F)(F)F)nn(-c3ccc(C(N)=O)c(NC4CCC(O)CC4)c3)c2C1 (centres undefined) ... 0.978
19) O=C(O)CCC1CCC(c2cc(F)ccc2F)(S(=O)(=O)c2ccc(Cl)cc2)CC1 (centres undefined) ... 0.867
